target: Pfs48/45 6C domain (NF54) (Plasmodium falciparum NF54, UniProt V5NSK3)
ENDPOINT_LABEL: binding result

INSERT INTO results (binder, endpoint_label, result) VALUES
  ('HC1-LC2 (antibody, V domains shown) VH: EVQLVESGGGLVQPGGSLRLSCAASGFTFNNYWMSWVRQAPGKGLEWVASISNIGGTIYYPDSVKGRFTISRDNAKNSLYLQMNSLRAEDTAVYYCTRDLRMSDYFDYWGQGTLVTVSS VL: QFVLTQPHSVSESPGKTVTISCKRSTGNIGSNYVSWYQQRPGSSPTTVIYRDDQRPSGVPDRFSGSIDRSSNSASLTISGLKTEDEADYYCHSYSTGMYIFGGGTKLTVL', 'binding result', 'binds'),
  ('HC1-LC1 (antibody, V domains shown) VH: EVQLVESGGGLVQPGGSLRLSCAASGFTFNNYWMSWVRQAPGKGLEWVASISNIGGTIYYPDSVKGRFTISRDNAKNSLYLQMNSLRAEDTAVYYCTRDLRMSDYFDYWGQGTLVTVSS VL: NFMLTQPHSVSESPGKTVTISCTRSTGNIGSNYVSWYQQRPGSSPTTVIYRDDQRPSGVPDRFSGSIDRSSNSASLTISGLKTEDEADYYCHSYSTGMYIFGGGTKLTVL', 'binding result', 'binds'),
  ('HC2-LC2 (antibody, V domains shown) VH: EVQLVESGGGLVQPGGSLRLSCAASGFTFNNYWMSWVRQAPGKGLEWVASISNIGGTIYYPDSVKGRFTISRDSAKNSLYLQMNSLRAEDTAVYYCTRDLRMSDYFDYWGQGTLVTVSS VL: QFVLTQPHSVSESPGKTVTISCKRSTGNIGSNYVSWYQQRPGSSPTTVIYRDDQRPSGVPDRFSGSIDRSSNSASLTISGLKTEDEADYYCHSYSTGMYIFGGGTKLTVL', 'binding result', 'binds');
